Kindly supply the reported pIC50 values for the records listed here.
- Test system: epimastigote forms of T. cruzi (Y strain)
- assay notes: Antitrypanosomal assay
- Type: cell-based, Trypanosoma cruzi
- recorded conditions: Trypanosoma cruzi, 96 h, epimastigote form of T. cruzi Y strain, 96 h at 28 °C, parasite counting; mean ± SD; read-out: Epimastigote IC50
Scale: negative log10 of molar concentration, which is what pIC50 denotes.

Give pIC50 for the following molecule: C[C@@]12CCC[C@@](C)(C(=O)O)[C@H]1CC[C@@]13C[C@@H](CC[C@H]12)[C@](C)(NC(=S)N/N=C/c1ccc(Cl)cc1)C3
4.83

Give the value of pIC50 reported for the following: C[C@@]12CCC[C@@](C)(C(=O)O)[C@H]1CC[C@@]13C[C@@H](CC[C@H]12)[C@](C)(NC(=S)N/N=C/c1ccc([N+](=O)[O-])cc1)C3
3.93

Item C[C@@]12CCC[C@@](C)(C(=O)O)[C@H]1CC[C@@]13C[C@@H](CC[C@H]12)[C@](C)(NC(=S)N/N=C/c1ccccc1)C3 : provide pIC50
4.17

Give the reported value of pIC50 for this record: C[C@@]12CCC[C@@](C)(C(=O)O)[C@H]1CC[C@@]13C[C@@H](CC[C@H]12)[C@](C)(NC(=S)N/N=C/c1ccccc1Cl)C3
4.40

Please give the documented pIC50 of CN(C)c1ccc(/C=N/NC(=S)N[C@]2(C)C[C@@]34CC[C@H]5[C@@](C)(CCC[C@@]5(C)C(=O)O)[C@@H]3CC[C@@H]2C4)cc1
4.10

Consider the molecule Cc1ccc(/C=N/NC(=S)N[C@]2(C)C[C@@]34CC[C@H]5[C@@](C)(CCC[C@@]5(C)C(=O)O)[C@@H]3CC[C@@H]2C4)cc1 . State its measured pIC50.
4.63

---

- assay notes: Cytotoxicity assay (sulforhodamine B)
- Type: cell-based
- recorded conditions: rhesus monkey, LLMCK2 cells, 96 h incubation, mean ± SD
recorded metric: CC50 at 96 h (µM)
Please give a number only; it is taken to be in µM.

Provide one value: measured CC50 at 96 h of C[C@@]12CCC[C@@](C)(C(=O)O)[C@H]1CC[C@@]13C[C@@H](CC[C@H]12)[C@](C)(N=C=S)C3
52

// fetch CC50 at 96 h given entry C[C@@]12CCC[C@@](C)(C(=O)O)[C@H]1CC[C@@]13C[C@@H](CC[C@H]12)[C@](C)(NC(=S)N/N=C/c1ccc([N+](=O)[O-])cc1)C3
15.2

Note down CC50 at 96 h recorded for Cc1ccc(/C=N/NC(=S)N[C@]2(C)C[C@@]34CC[C@H]5[C@@](C)(CCC[C@@]5(C)C(=O)O)[C@@H]3CC[C@@H]2C4)cc1
122

Supply recorded CC50 at 96 h for C[C@@]12CCC[C@@](C)(C(=O)O)[C@H]1CC[C@@]13C[C@@H](CC[C@H]12)[C@](C)(NC(=S)N/N=C/c1ccccc1)C3 here.
31.1

Quote CC50 at 96 h reported for C[C@@]12CCC[C@@](C)(C(=O)O)[C@H]1CC[C@@]13C[C@@H](CC[C@H]12)[C@](C)(NC(=S)N/N=C/c1cccc([N+](=O)[O-])c1)C3 please.
105

Given the compound C[C@@]12CCC[C@@](C)(C(=O)O)[C@H]1CC[C@@]13C[C@@H](CC[C@H]12)[C@](C)(NC(=S)N/N=C/c1cccc(Cl)c1)C3 , write its reported CC50 at 96 h.
56.2

Determine its reported CC50 at 96 h: C[C@@]12CCC[C@@](C)(C(=O)O)[C@H]1CC[C@@]13C[C@@H](CC[C@H]12)[C@](C)(NC(=S)N/N=C/c1ccccc1Cl)C3
364

Name the recorded CC50 at 96 h of the item C[C@@]12CCC[C@@](C)(C(=O)O)[C@H]1CC[C@@]13C[C@@H](CC[C@H]12)[C@](C)(NC(=S)NN)C3 in your answer.
71.4

Recall and state the measured CC50 at 96 h for C[C@@]12CCC[C@@](C)(C(=O)O)[C@H]1CC[C@@]13C[C@@H](CC[C@H]12)[C@](C)(NC(=S)N/N=C/c1ccc(O)cc1)C3 .
29.5

Using the record for C[C@@]12CCC[C@@](C)(C(=O)O)[C@H]1CC[C@@]13C[C@@H](CC[C@H]12)[C@](C)(NC(=S)N/N=C/c1ccccc1[N+](=O)[O-])C3 , state its measured CC50 at 96 h.
17.1

Recall and state the measured CC50 at 96 h for C[C@@]12CCC[C@@](C)(C(=O)O)[C@H]1CC[C@@]13C[C@@H](CC[C@H]12)[C@](C)(NC(=S)N/N=C/c1ccc(Cl)cc1)C3 .
28.7

Supply recorded CC50 at 96 h for COc1ccc(/C=N/NC(=S)N[C@]2(C)C[C@@]34CC[C@H]5[C@@](C)(CCC[C@@]5(C)C(=O)O)[C@@H]3CC[C@@H]2C4)cc1 here.
78.2

Consider the compound C[C@@]12CCC[C@@](C)(C(=O)O)[C@H]1CC[C@@]13C[C@@H](CC[C@H]12)[C@](C)(SC#N)C3 and give its recorded CC50 at 96 h.
103

Determine from records and report CC50 at 96 h for CN(C)c1ccc(/C=N/NC(=S)N[C@]2(C)C[C@@]34CC[C@H]5[C@@](C)(CCC[C@@]5(C)C(=O)O)[C@@H]3CC[C@@H]2C4)cc1
248

---

- assay notes: Cytotoxicity assay (sulforhodamine B)
- Assay type: cell-based
- recorded conditions: rhesus monkey, LLMCK2 cells, 96 h incubation, mean ± SD
recorded metric: CC50 (µM)
Dear colleague, please return just the value in µM, with no unit written.

Output measured CC50 for this item: C=C1C[C@@]23CC[C@H]4[C@@](C)(CCC[C@@]4(C)C(=O)O)[C@@H]2CC[C@@H]1C3 [compound 1, ent-kaur-16-en-19-oic acid, reference compound]
59.5

---

- System: epimastigote forms of T. cruzi (Y strain)
- assay notes: Antitrypanosomal assay
- Type: cell-based, Trypanosoma cruzi
- recorded conditions: Trypanosoma cruzi, 96 h, epimastigote form of T. cruzi Y strain, 96 h at 28 °C, parasite counting; mean ± SD; read-out: Epimastigote IC50
pIC50: −log10 of the molar value.
Returns rule met if the recorded pIC50 is greater than or equal to 5, and rule not met otherwise.

Kindly determine if pIC50 recorded for C=C1C[C@@]23CC[C@H]4[C@@](C)(CCC[C@@]4(C)C(=O)O)[C@@H]2CC[C@@H]1C3 [compound 1, ent-kaur-16-en-19-oic acid, reference compound] is above or exactly 5.
rule not met

Check if pIC50 >= 5 (inclusive). Item: COc1ccc(/C=N/NC(=S)N[C@]2(C)C[C@@]34CC[C@H]5[C@@](C)(CCC[C@@]5(C)C(=O)O)[C@@H]3CC[C@@H]2C4)cc1
rule not met

Could you tell me if the measured pIC50 of C[C@@]12CCC[C@@](C)(C(=O)O)[C@H]1CC[C@@]13C[C@@H](CC[C@H]12)[C@](C)(NC(=S)NN)C3 reaches 5 or more?
rule not met

For this compound, is measured pIC50 5 or higher? C[C@@]12CCC[C@@](C)(C(=O)O)[C@H]1CC[C@@]13C[C@@H](CC[C@H]12)[C@](C)(NC(=S)N/N=C/c1ccc(O)cc1)C3
rule not met

# check: pIC50 of C[C@@]12CCC[C@@](C)(C(=O)O)[C@H]1CC[C@@]13C[C@@H](CC[C@H]12)[C@](C)(NC(=S)N/N=C/c1ccccc1[N+](=O)[O-])C3 is greater than or equal to 5
rule met

---

recorded metric: melting point

Identify measured melting point corresponding to C[C@@]12CCC[C@@](C)(C(=O)O)[C@H]1CC[C@@]13C[C@@H](CC[C@H]12)[C@](C)(SC#N)C3
165 °C

Answer with reported melting point of C[C@@]12CCC[C@@](C)(C(=O)O)[C@H]1CC[C@@]13C[C@@H](CC[C@H]12)[C@](C)(NC(=S)N/N=C/c1cccc(Cl)c1)C3
207 °C

Indicate its recorded melting point; the compound in question is C[C@@]12CCC[C@@](C)(C(=O)O)[C@H]1CC[C@@]13C[C@@H](CC[C@H]12)[C@](C)(NC(=S)N/N=C/c1cccc([N+](=O)[O-])c1)C3
217 °C

Name the recorded melting point of the item Cc1ccc(/C=N/NC(=S)N[C@]2(C)C[C@@]34CC[C@H]5[C@@](C)(CCC[C@@]5(C)C(=O)O)[C@@H]3CC[C@@H]2C4)cc1 in your answer.
223 °C

Provide measured melting point value, entry: C[C@@]12CCC[C@@](C)(C(=O)O)[C@H]1CC[C@@]13C[C@@H](CC[C@H]12)[C@](C)(NC(=S)N/N=C/c1ccc([N+](=O)[O-])cc1)C3
219.5 °C

Please give the documented melting point of C[C@@]12CCC[C@@](C)(C(=O)O)[C@H]1CC[C@@]13C[C@@H](CC[C@H]12)[C@](C)(NC(=S)N/N=C/c1ccccc1Cl)C3
202.5 °C

Check the records and state melting point for C[C@@]12CCC[C@@](C)(C(=O)O)[C@H]1CC[C@@]13C[C@@H](CC[C@H]12)[C@](C)(NC(=S)N/N=C/c1ccccc1)C3
202 °C

Recall and state the measured melting point for C[C@@]12CCC[C@@](C)(C(=O)O)[C@H]1CC[C@@]13C[C@@H](CC[C@H]12)[C@](C)(N=C=S)C3 .
174 °C

For the compound COc1ccc(/C=N/NC(=S)N[C@]2(C)C[C@@]34CC[C@H]5[C@@](C)(CCC[C@@]5(C)C(=O)O)[C@@H]3CC[C@@H]2C4)cc1 , give its measured melting point value.
214.5 °C

Quote melting point reported for CN(C)c1ccc(/C=N/NC(=S)N[C@]2(C)C[C@@]34CC[C@H]5[C@@](C)(CCC[C@@]5(C)C(=O)O)[C@@H]3CC[C@@H]2C4)cc1 please.
231 °C

Give a short answer stating reported melting point for C[C@@]12CCC[C@@](C)(C(=O)O)[C@H]1CC[C@@]13C[C@@H](CC[C@H]12)[C@](C)(NC(=S)NN)C3 .
131 °C

Give reported melting point value for C[C@@]12CCC[C@@](C)(C(=O)O)[C@H]1CC[C@@]13C[C@@H](CC[C@H]12)[C@](C)(NC(=S)N/N=C/c1ccccc1[N+](=O)[O-])C3
211 °C

Please look at this compound and report its melting point: C[C@@]12CCC[C@@](C)(C(=O)O)[C@H]1CC[C@@]13C[C@@H](CC[C@H]12)[C@](C)(NC(=S)N/N=C/c1ccc(O)cc1)C3
191.5 °C

// fetch melting point given entry C[C@@]12CCC[C@@](C)(C(=O)O)[C@H]1CC[C@@]13C[C@@H](CC[C@H]12)[C@](C)(NC(=S)N/N=C/c1ccc(Cl)cc1)C3
223.5 °C
